tested on: SF-268 CNS; test: NCI-60 one-dose screen, 48 h (100 = growth as untreated, 0 = no growth, -100 = all killed); settings: 10 µM unless noted
Compounds without any hit were thinned out: in the full panel of roughly 83,000, 20% have a hit.
Below, each entry is listed with its recorded growth.
Write it as a number; the unit % goes unstated.

Here is how some compounds turned out for growth.
{"Compound": "COc1ccc(OC)c(NC2=C(Cl)C(=O)C(C)=C(C)C2=O)c1", "Experimental system": "SF-268 CNS", "Unit info": "%", "growth": 93.9}
{"Compound": "CCN1C(=O)N(CC)C2SC(N/N=C/c3cccs3)=NC21 (stereo not given)", "Experimental system": "SF-268 CNS", "Unit info": "%", "growth": 35.7}
{"Compound": "O=C1Nc2ccc(Br)cc2/C1=N\\c1nnc(-c2ccc(Cl)cc2)o1", "Experimental system": "SF-268 CNS", "Unit info": "%", "growth": 75.2}
{"Compound": "NS(=O)(=O)Oc1ccc2nc(Nc3ccc(F)c(F)c3)ccc2c1", "Experimental system": "SF-268 CNS", "Unit info": "%", "growth": 88.1}
{"Compound": "CCn1c2ccc(/C=N/OCCCN(C)C)cc2c2cc(/C=N/OCCCN(C)C)ccc21", "Experimental system": "SF-268 CNS", "Unit info": "%", "growth": 79.1}

SF-268 CNS growth of CC(C)N=C(N/C(N)=N/c1nc2ccccc2s1)NC(C)C is 81.3

SF-268 CNS growth of Cc1cn(-c2cc(NC(=O)c3cncc(C#Cc4cnc5ccc(O[C@H]6CCOC6)nn45)c3)cc(C(F)(F)F)c2)cn1 is 94.7

SF-268 CNS growth of Cc1cc2nc(C(Cl)Cl)nc(-c3ccco3)n2n1 is 81.2

SF-268 CNS growth of CS(=O)c1nccc(-c2c(-c3ccc(F)c(OCCc4ccc(F)cc4)c3)nc3sccn23)n1 (stereo not given) is 93.3

SF-268 CNS growth of CCN1C(=O)N(CC)C2SC(N/N=C/c3ccc(OC)cc3)=NC21 (stereo not given) is 49.7

SF-268 CNS growth of COC[C@]12CC[C@@H](C)[C@H](C)[C@H]1C1=CC[C@@H]3[C@@]4(C)CCCNC(C)(C)[C@@H]4CC[C@@]3(C)[C@]1(C)CC2 is 70.2
